Test system: CAL-12T
protocol: relative viability (nuclei count vs DMSO), 5 days (fraction); higher = more cells survive
condition.label: first compound 0.1 µM

| molecule | test.system | relative viability |
| --- | --- | --- |
| CCN(CC)CCCCNc1ncc2cc(-c3cc(OC)cc(OC)c3)c(NC(=O)NC(C)(C)C)nc2n1 + NC(=O)Nc1cc(-c2cccc(F)c2)sc1C(=O)N[C@H]1CCCNC1 [AZD7762] (partner 0.2 µM) | CAL-12T | 0.796 |
| CCN(CC)CCCCNc1ncc2cc(-c3cc(OC)cc(OC)c3)c(NC(=O)NC(C)(C)C)nc2n1 + C[C@@H](Oc1cc(-c2cnn(C3CCNCC3)c2)cnc1N)c1c(Cl)ccc(F)c1Cl [Crizotinib] (partner 1 µM) | CAL-12T | 0.553 |
| CCN(CC)CCCCNc1ncc2cc(-c3cc(OC)cc(OC)c3)c(NC(=O)NC(C)(C)C)nc2n1 + O=C(CCCCCCC(=O)Nc1ccccc1)NO [Vorinostat] (partner 1 µM) | CAL-12T | 0.766 |
| CCN(CC)CCCCNc1ncc2cc(-c3cc(OC)cc(OC)c3)c(NC(=O)NC(C)(C)C)nc2n1 + Cc1nc(Nc2ncc(C(=O)Nc3c(C)cccc3Cl)s2)cc(N2CCN(CCO)CC2)n1 [Dasatinib] (partner 0.075 µM) | CAL-12T | 0.435 |
| CCN(CC)CCCCNc1ncc2cc(-c3cc(OC)cc(OC)c3)c(NC(=O)NC(C)(C)C)nc2n1 + CC(C)C[C@H](NC(=O)[C@H](Cc1ccccc1)NC(=O)c1cnccn1)B(O)O [Bortezomib] (partner 0.002 µM) | CAL-12T | 1.03 |
| CCN(CC)CCCCNc1ncc2cc(-c3cc(OC)cc(OC)c3)c(NC(=O)NC(C)(C)C)nc2n1 + C[C@]1(O)C[C@@H](c2nc(-c3ccc4ccc(-c5ccccc5)nc4c3)c3c(N)nccn32)C1 [Linsitinib] (partner 1 µM) | CAL-12T | 0.729 |
